- TARGET OR TEST SYSTEM: T1, Med25-ACID_(532-680), activator interaction domain (ACID) of mediator complex subunit 25 (Arabidopsis thaliana, UniProt Q7XYY2 532-680)
- T1 chain: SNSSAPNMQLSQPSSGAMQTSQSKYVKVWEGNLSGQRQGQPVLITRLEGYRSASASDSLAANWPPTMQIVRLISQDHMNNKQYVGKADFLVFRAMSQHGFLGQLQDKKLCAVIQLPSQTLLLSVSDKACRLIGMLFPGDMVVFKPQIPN
- ASSAY COMMENT: stopped-flow, 10 °C
No end group written: not given here.
PARAMETER: pKd
Just the number, please; pKd means minus log10 of the concentration in mol/L.

(Q) Consider the binder shown here: QDSLSVADYGWPNDVDQSHLDSS (peptide, UniProt O82132 234-256, looked up, also: FITC label, position not given here, DREB2A, Arabidopsis thaliana, AT5G05410, residues 234-256; also called FITC-labeled ABS; source: synthetic peptide, bought: TAG Copenhagen A/S) [FITC-DREB2A_(234-256) synthetic peptide] What is its recorded pKd?
(A) 5.74
